molecular target: α-chymotrypsin (Bos taurus, UniProt P00766); assay: Chymotrypsin inhibitory activity of peptides (AAPFpNA hydrolysis; IC50, Ki, residual activity); assay type: biochemical
Bridge positions count the residues as written; N and C are the ends. Peptide text beside a SMILES is read from it.
OBSERVATION TYPE: inhibitory activity against chymotrypsin (in words)

CC[C@H](C)[C@@H]1NC(=O)[C@@H]2CCCN2C(=O)[C@@H]2CCCN2C(=O)[C@H]([C@@H](C)CC)NC(=O)[C@H](CO)NC(=O)[C@H](Cc2ccccc2)NC(=O)[C@H]([C@@H](C)O)NC(=O)[C@@H](NC(=O)[C@@H](NC(=O)CN)[C@@H](C)O)CSSC[C@@H](C(=O)N[C@@H](CC(N)=O)C(=O)O)NC1=O [CH26] (H-GTCTFSIPPICN-OH; disulfide 3-11; C-terminus assumed) | good inhibitory activity
CC[C@H](C)[C@@H]1NC(=O)[C@H](CO)NC(=O)[C@H](Cc2ccc(O)cc2)NC(=O)[C@H]([C@@H](C)O)NC(=O)[C@@H](NC(=O)[C@@H](N)Cc2ccccc2)CSSC[C@@H](C(=O)N[C@@H](Cc2ccc(O)cc2)C(=O)O)NC(=O)[C@H](CCC(N)=O)NC(=O)[C@@H]2CCCN2C(=O)[C@@H]2CCCN2C1=O [CH33] (H-FCTYSIPPQCY-OH; disulfide 2-10; C-terminus assumed) | good inhibitory activity
